Reported pKi against Serine protease 1 (Homo sapiens, UniProt P07477), gathered from multiple publications, appears below.
Sequence (P07477 whole entry): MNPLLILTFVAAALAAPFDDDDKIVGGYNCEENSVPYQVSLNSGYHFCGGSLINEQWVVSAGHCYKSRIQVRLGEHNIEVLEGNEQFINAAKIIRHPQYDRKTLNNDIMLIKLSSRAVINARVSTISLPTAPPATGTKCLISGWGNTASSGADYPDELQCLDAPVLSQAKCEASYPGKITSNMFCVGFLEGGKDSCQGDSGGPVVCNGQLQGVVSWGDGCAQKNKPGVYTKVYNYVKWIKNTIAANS
Lab note: report pKi as minus log10 of the concentration in molar units, number only.

Cc1nc(N)ccc1CNC(=O)Cn1c(C)cc2c(c1=O)NC(=O)CC2; 4.00

Data request: Complete the entry with pKi for COCC1(C(=O)Nc2ccc(-c3ccccc3S(N)(=O)=O)cn2)CC(c2cccc(C(=N)N)c2)=NO1 (configuration not stated)
Data returned: 7.35

Data request: Fill in pKi for record N=C(N)c1ccc2c(c1)C(CC(=O)Nc1ccc(-c3ccccc3S(N)(=O)=O)cc1)CN2 (single isomer, unassigned; (-))
Data returned: 6.40

Data request: Using known records, supply pKi for Cc1cc(-c2ccccc2)ccc1C(=O)N[C@@H](CCCN=C(N)N)B1O[C@@H]2CC3CC(C3(C)C)[C@]2(C)O1 (some centres not stated)
Data returned: 8.38

Data request: Provide pKi value for the following compound: CC(C)(C)OC(=O)Nc1cccc(-c2ccc(C(=O)N[C@@H](CCCN=C(N)N)B3O[C@@H]4CC5CC(C5(C)C)[C@]4(C)O3)o2)c1 (some centres not stated)
Data returned: 7.60

Data request: State its pKi: `Cc1nc(N)ccc1CNC(=O)Cn1c(C(F)(F)F)ccc(NS(=O)(=O)Cc2ccc(Cl)cc2)c1=O`
Data returned: 5.47

Data request: For CCCCS(=O)(=O)N[C@H](Cc1ccccc1)C(=O)N1CCC[C@H]1C(=O)N[C@@H](CCCNc1cc(Cl)nc(N)n1)B1O[C@@H]2CC3CC(C3(C)C)[C@]2(C)O1 (some centres not stated) , write its pKi.
Data returned: 6.67

Data request: Kindly indicate its recorded pKi. Item: `Cc1ccc(NS(=O)(=O)Cc2ccccc2)c(=O)n1CC(=O)NCc1ccccc1`
Data returned: 3.33

Data request: Respond only with pKi recorded for `CC(C)(C)OC(=O)N[C@@H](CO)C(=O)NCC(=O)NCc1ccc(C(=N)N)cc1`
Data returned: 5.47

====

Listing of pKi toward Serine protease 1 (Homo sapiens), each taken from a published source.
Recall that pKi is obtained by taking minus log10 of the concentration measured in molar.

N=C(N)c1ccc2[nH]cc(CC(=O)Nc3ccc(-c4ccccc4S(N)(=O)=O)cc3Br)c2c1; 6.92
N=C(N)Nc1ccc(CNC(=O)N2CCN(C(=O)O[C@H]3CCC[C@@H](OC(=O)N4CCN(C(=O)NC[C@H]5CC[C@H](N)CC5)CC4)CCC3)CC2)cc1; 3.85
CNS(=O)(=O)c1ccccc1-c1ccc(NC(=O)Cc2c[nH]c3ccc(C(=N)N)cc23)cc1; 6.92
CCSC(=O)C(=O)C(NC(=O)[C@@H]1CC[C@H]2CN(S(=O)(=O)Cc3ccccc3)CC(=O)N21)[C@H]1CC[C@H](N)CC1 (some centres not stated); 6.82

Data request: State measured pKi of the compound `Cc1cnc(NCCc2ccccn2)c(=O)n1CC(=O)NCc1cnc2[nH]ccc2c1` with Serine protease 1 (Homo sapiens).
Data returned: 3.85

Data request: Enter pKi (test system Serine protease 1 (Homo sapiens)) for `Cc1cc(N)ncc1CNC(=O)Cn1c(C)ccc(NS(=O)(=O)Cc2ccccc2)c1=O`
Data returned: 5.82

====

pKi: −log10 of the molar value.
Below, pKi values reported for Serine protease 1 (Homo sapiens) across several publications.

Known results for compounds:
N=C(N)c1ccc(O)c(CCCNC(=O)c2cc3ccc(Cl)cc3s2)c1; < 5.54
N=C(N)c1ccc(O)c(CN2CC[C@H](NS(=O)(=O)c3cc4cnccc4s3)C2=O)c1; < 5.54

Shift focus to the following entry.
Data request: Name the value of pKi reported for Nc1cc(C2=NOC(CNC=O)(C(=O)Nc3ccc(-c4ccccc4S(N)(=O)=O)cn3)C2)ccc1Cl (racemic) when tested on Serine protease 1 (Homo sapiens).
Data returned: < 5.10

====

Literature Ki values, system: Serine protease 1 (Homo sapiens, UniProt P07477).

COc1ccc(-n2nc(C(F)(F)F)cc2C(=O)Nc2ccc(-c3ccccc3S(N)(=O)=O)cn2)cc1; > 1.6 µM

Data request: // fetch Ki given entry `C[C@H](NC(=O)OCc1ccc(COC(=O)N[C@@H](C)C(=O)NCc2ccc(CN)cc2)cc1)C(=O)NCc1ccc(CN)cc1`
Data returned: 273 µM

Data request: For the molecule CC(=O)N[C@H](Cc1ccccc1)C(=O)N1CCC[C@H]1C(=O)N[C@@H](CCCn1ncnc1N)B1O[C@@H]2CC3CC(C3(C)C)[C@]2(C)O1 (stereo partly drawn) , give its reported Ki.
Data returned: > 1.2 µM

====

We begin with Ki values for Serine protease 1 (Homo sapiens), as collected from the published literature.

COC(=O)[C@H]1CN(Cc2ccc(-c3ccccc3S(N)(=O)=O)cc2)C[C@H]1c1cccc(C(=N)N)c1; > 1600 nM

Data request: State, in one line, measured Ki of N[C@H](Cc1ccc(Cl)c(Cl)c1)C(=O)N1CCC[C@H]1C(=O)NCC1CCc2n[nH]cc2C1 (some centres not stated)
Data returned: > 68300 nM

Data request: Read the entry `Cc1cc(C(=O)Nc2ccc(-c3ccccc3S(N)(=O)=O)cc2)n(-c2cccc(O)c2)n1` and write its reported Ki.
Data returned: > 1500 nM

Data request: Identify the reported Ki for the following entry. Nc1cc(C2=NOC(Cn3cnnn3)(C(=O)Nc3ccc(-c4ccccc4S(N)(=O)=O)cn3)C2)ccc1Cl (racemic)
Data returned: > 1600 nM

Data request: Item `COc1ccc2cc(S(=O)(=O)NN(Cc3ccc(C(=N)NO)cc3)C(=O)N3CCC(C)CC3)ccc2c1` : provide Ki
Data returned: > 68000 nM

Data request: Return the recorded Ki value; entry: `COc1ccc2ccc(S(=O)(=O)N[C@H]3CCN(Cc4cccc(C(=N)N)c4)C3=O)cc2n1`
Data returned: > 2900 nM

Data request: Hello, please tell me recorded Ki for this one: `N=C(N)c1ccc2c(cnn2CC(=O)N2CCC(Cc3ccccc3)CC2)c1`
Data returned: > 6000 nM

====

Below, pKi values reported for Serine protease 1 (Homo sapiens) across several publications.
pKi: −log10 of the molar value.

COc1ccc(-n2nc(C(F)(F)F)cc2C(=O)Nc2ccc(-c3ccccc3S(C)(=O)=O)cc2)c(CN)c1; < 5.80
CCOC(=O)NCc1cccc(-c2ccc(C(=O)N[C@H](C)[C@@H](Cc3cccc(C(=N)N)c3)C(=O)OC)cc2)c1; < 5.54
CC1(C)[C@@H]2C[C@H]3OB([C@H](CCCCN)NC(=O)Cn4nc(CNS(=O)(=O)C(F)(F)F)nc4Cc4ccccc4)O[C@@]3(C)[C@H]1C2; < 5.92

Read the next record carefully.
Data request: Write down measured pKi (Serine protease 1 (Homo sapiens)) for this molecule. `N=C(N)c1cccc(CN2CC[C@H](NS(=O)(=O)c3cc4ncccc4s3)C2=O)c1`
Data returned: < 5.54

====

We begin with Ki values for Serine protease 1 (Homo sapiens), as collected from the published literature.
Lab book: enter the figure in µM, no units written.

Cc1cnc(NCCc2ccccc2)c(=O)n1CC(=O)NCc1cccnc1; 898

Data request: Return reported Ki for target or system Serine protease 1 (Homo sapiens), item `COc1ccc2ccc(C(=N)N)cc2c1-c1ccoc1` .
Data returned: 1.2

Data request: Answer briefly: Ki recorded on Serine protease 1 (Homo sapiens) for `COC(=O)[C@@H](CNC(=O)c1ccc(-c2ccccc2)cc1)Cc1cccc(C(=N)N)c1`
Data returned: 0.23

====

Compiled pKi measurements on Serine protease 1 (Homo sapiens, UniProt P07477) taken from the literature.
Just the number, please; pKi means minus log10 of the concentration in mol/L.

CCOC(=O)CC(CCc1ccc(C(=N)N)cc1)c1cccc(C(=N)N)c1 (stereo not given); 6.96
CC1CCN(C(=O)N(Cc2cccc(C(=N)N)c2)NS(=O)(=O)c2ccc3ccccc3c2)CC1; 6.96

Data request: Recall the reported pKi of `N=C(N)Nc1ccc(CNC(=O)N2CCN(C(=O)O[C@H]3CCC[C@@H](OC(=O)N4CCN(C(=O)CCCCn5ccnc5)CC4)CCC3)CC2)cc1` on Serine protease 1 (Homo sapiens, UniProt P07477) and write it down.
Data returned: 3.84

Data request: Given N=C(N)c1cccc(C2=NOC(C(=O)Nc3ccc(-c4ccccc4S(N)(=O)=O)cc3)(C(F)(F)F)C2)c1 (stereo not given) , report its pKi on Serine protease 1 (Homo sapiens, UniProt P07477).
Data returned: 6.51

====

Compiled Ki measurements on Serine protease 1 (Homo sapiens, UniProt P07477) taken from the literature.

Please review the entries below; each comes with its answer.
N[C@H]1CC[C@H](C(NC(=O)[C@@H]2CC[C@H]3CN(S(=O)(=O)Cc4ccccc4)CC(=O)N32)C(=O)c2nnnn2CC(=O)O)CC1 (stereo partly drawn); > 400 µM
CC(=O)NCC1(C(=O)Nc2ccc(-c3ccccc3S(N)(=O)=O)cn2)CC(c2ccc(Cl)c(N)c2)=NO1 (racemic); > 1.6 µM

Now turn to the next compound.
Data request: Consider the compound `Cc1cnc(NCCc2ccccc2)c(=O)n1CC(=O)NCc1cnc2[nH]ccc2c1` and give its recorded Ki.
Data returned: > 100 µM
